Assay: Solubility (Sol), medium not stated
Type: physicochemical
Conditions: cells not marked (FESSIF)
What Sol was measured for each of the following?

Worked cases, Sol given:
compound	Sol
O=C1CCc2c(Oc3ccc4c(c3)CC(c3cc(-c5ccc(Cl)cc5)n[nH]3)CO4)ccnc2N1 (stereo not shown) [Compound 39]	<1.2 mg/L
COc1ccccc1-c1cc(C2COc3ccc(Oc4ccnc5c4CCC(=O)N5)cc3C2)[nH]n1 (stereo not shown) [Compound 40]	<1.2 mg/L
COc1cccc(-c2cc(C3COc4ccc(Oc5ccnc6c5CCC(=O)N6)cc4C3)[nH]n2)c1 (stereo not shown) [Compound 41]	<1.2 mg/L

For each of the compounds below, state Sol.
1. O=C1CCc2c(Oc3ccc4c(c3)CN(C(=O)NCc3ccccc3)CC4)ccnc2N1 [Compound 48]
2. O=C1CCc2c(Oc3ccc4c(c3)CC(c3cc(-c5ccc(C(F)(F)F)cc5)n[nH]3)CO4)ccnc2N1 (stereo not shown) [Compound 38]
3. O=C1CCc2c(Oc3ccc4c(c3)CC(c3nc(-c5cccc(F)c5)c[nH]3)CO4)ccnc2N1 (stereo not shown) [Compound 15]
4. O=C1CCc2c(Oc3ccc4c(c3)CC(c3cc(-c5ccccc5Cl)n[nH]3)CO4)ccnc2N1 (stereo not shown) [Compound 36]
5. N#Cc1ccc2[nH]c(C3COc4ccc(Oc5ccnc6c5CCC(=O)N6)cc4C3)nc2c1 (stereo not shown) [Compound 24]
6. O=C1CCc2c(Oc3ccc4c(c3)CC(c3nc(-c5cc(F)ccc5F)c[nH]3)CO4)ccnc2N1 (stereo not shown) [Compound 5]
7. Cc1cc2nc(C3COc4ccc(Oc5ccnc6c5CCC(=O)N6)cc4C3)[nH]c2cc1C (stereo not shown) [Compound 29]

[out]
["<1.1 mg/L", "<1.3 mg/L", "<1.1 mg/L", "<1.2 mg/L", "<1.1 mg/L", "<1.2 mg/L", "<1.1 mg/L"]

---

Experiment: Solubility (Sol), medium not stated
Format: physicochemical
Conditions: cells not marked (FESSIF)
Assignment: determine reported Sol for the given molecules.

Before answering, review these 10 worked examples.
molecule	reported.value
O=C(Nc1cc(Oc2ccc3c(c2)CC(c2nc(-c4ccccc4)c[nH]2)CO3)ccn1)C1CC1 (stereo not drawn) [Compound 45]	<1.2 mg/L
O=C1CCc2c(Oc3ccc4c(c3)CC(c3cc(-c5cccc(Cl)c5)n[nH]3)CO4)ccnc2N1 (stereo not drawn) [Compound 37]	<1.2 mg/L
COc1ccc(-c2cc(C3COc4ccc(Oc5ccnc6c5CCC(=O)N6)cc4C3)[nH]n2)cc1 (stereo not drawn) [Compound 43]	<1.2 mg/L
O=C1CCc2c(Oc3ccc4c(c3)CC(c3nc5cc(C(F)(F)F)cc(Cl)c5[nH]3)CO4)ccnc2N1 (stereo not drawn) [Compound 30]	<1.3 mg/L
O=C1CCc2c(Oc3ccc4c(c3)CC(c3nc5cc(C(F)(F)F)ncc5[nH]3)CO4)ccnc2N1 (racemic) [Compound 32]	<1.2 mg/L
COc1ccccc1-c1c[nH]c(C2COc3ccc(Oc4ccnc5c4CCC(=O)N5)cc3C2)n1 (stereo not drawn) [Compound 1]	<1.2 mg/L
CN(C)Cc1cc(-c2c[nH]c(C3COc4ccc(Oc5ccnc6c5CCC(=O)N6)cc4C3)n2)cc(C(F)(F)F)c1 (stereo not drawn) [Compound 7]	<1.4 mg/L
Cc1cccc(-c2c[nH]c(C3COc4ccc(Oc5ccnc6c5CCC(=O)N6)cc4C3)n2)c1 (stereo not drawn) [Compound 14]	<1.1 mg/L
COc1cccc(-c2c[nH]c(C3COc4ccc(Oc5ccnc6c5CCC(=O)N6)cc4C3)n2)c1 (stereo not drawn) [Compound 13]	<1.2 mg/L
O=C1CCc2c(Oc3ccc4c(c3)CC(c3nc(-c5cccc(C(F)(F)F)c5)c[nH]3)CO4)ccnc2N1 (stereo not drawn) [Compound 12]	<1.3 mg/L

Look at each molecule and report its Sol.
1. O=C1CCc2c(Oc3ccc4c(c3)CC(c3nc(-c5ccc(C(F)(F)F)cc5)c[nH]3)CO4)ccnc2N1 (stereo not drawn) [Compound 20]
2. CN(C)c1ccc2[nH]c(C3COc4ccc(Oc5ccnc6c5CCC(=O)N6)cc4C3)nc2c1 (stereo not drawn) [Compound 26]
3. CN(C)Cc1cc(C(F)(F)F)c2nc(C3COc4ccc(Oc5ccnc6c5CCC(=O)N6)cc4C3)[nH]c2c1 (stereo not drawn) [Compound 34]
4. O=C1CCc2c(Oc3ccc4c(c3)CC(c3nc5cc(F)c(F)cc5[nH]3)CO4)ccnc2N1 (stereo not drawn) [Compound 23]
5. O=C1CCc2c(Oc3ccc4c(c3)CC(c3nc(-c5ccccc5C(F)(F)F)c[nH]3)CO4)ccnc2N1 (stereo not drawn) [Compound 4]

[out]
1: <1.3 mg/L; 2: <1.1 mg/L; 3: 28.7 mg/L; 4: <1.1 mg/L; 5: <1.3 mg/L

---

Assay: Plasma protein binding assay, human plasma (hPPB)
Type: in vitro ADME
Settings: 5 μM, equilibrium dialysis 4 hours at 37° C.
Record condition met whenever hPPB (% free) is at 0.9 % free or higher; record condition not met when lower.

The examples below pair each entry with its known result.
compound	discrete.label
O=C(Nc1cc(Oc2ccc3c(c2)CC(c2nc(-c4ccccc4)c[nH]2)CO3)ncn1)C1CC1 (stereo not shown) [Compound 151]	condition not met
c1ccc(-c2c[nH]c(C3COc4ccc(Oc5ccnc(Nc6nccs6)c5)cc4C3)n2)cc1 (stereo not shown) [Compound 141]	condition not met
O=C1CCc2c(Oc3ccc4c(c3)CC(c3nc(-c5ccnc(C(F)(F)F)c5)c[nH]3)CO4)ccnc2N1 (stereo not shown) [Compound 8]	condition met
Cc1cc(-c2c[nH]c(C3COc4ccc(Oc5ccnc6c5CCC(=O)N6)cc4C3)n2)ccn1 (stereo not shown) [Compound 117]	condition met
O=C(CN1CC[C@@H](O)C1)Nc1cc(Oc2ccc3c(c2)CC(c2nc(-c4ccccc4)c[nH]2)CO3)ccn1 (stereo partly shown) [Compound 145]	condition not met

[in] I'd appreciate it if you could say whether O=C(NC1CC1)c1cc(Oc2ccc3c(c2)CC(c2nc(-c4ccccc4)c[nH]2)CO3)ccn1 (stereo not shown) [Compound 158] has hPPB (% free) at least equal to 0.9 % free.
[out] condition not met

---

Please respond with reported hPPB (% free) for every item in the list.
Assay: Plasma protein binding assay, human plasma (hPPB)
Assay type: in vitro ADME
Conditions: 5 μM, equilibrium dialysis 4 hours 37° C.
Numbers only, in % free.

// solved cases for hPPB (% free) follow
compound	unit.spec	hPPB (% free)
O=C1CCc2c(Oc3ccc4c(c3)CN(C(=O)Nc3cccc(C(F)(F)F)c3)CC4)ccnc2N1 [Compound 50]	% free	1.2
CN(C)Cc1cc(C(F)(F)F)cc2nc(C3COc4ccc(Oc5ccnc6c5CCC(=O)N6)cc4C3)[nH]c12 (centres unmarked) [Compound 33]	% free	2
Cc1cc2nc(C3COc4ccc(Oc5ccnc6c5CCC(=O)N6)cc4C3)[nH]c2cc1C (centres unmarked) [Compound 29]	% free	0.2
O=C1CCc2c(Oc3ccc4c(c3)CC(c3nc(-c5ccc(C(F)(F)F)cc5)c[nH]3)CO4)ccnc2N1 (centres unmarked) [Compound 20]	% free	0.1
N#Cc1ccc(-c2c[nH]c(C3COc4ccc(Oc5ccnc6c5CCC(=O)N6)cc4C3)n2)cc1 (centres unmarked) [Compound 21]	% free	0.7

Hi! Can you tell me hPPB (% free) for each of these compounds?
1. O=C1CCc2c(Oc3ccc4c(c3)CN(C(=O)Nc3ccccc3)CC4)ccnc2N1 [Compound 46]
2. O=C1CCc2c(Oc3ccc4c(c3)CN(C(=O)NCc3ccccc3)CC4)ccnc2N1 [Compound 48]

[out]
1: 1.9; 2: 2

---

Experiment: Plasma protein binding assay, mouse plasma (mPPB)
Assay type: in vitro ADME
Conditions: 5 μM, equilibrium dialysis 4 hours at 37° C.
endpoint.name: mPPB (% free)

Please review the entries below; each comes with its answer.
molecule	reported.value
COc1ccsc1-c1c[nH]c(C2COc3ccc(Oc4ccnc5c4CCC(=O)N5)cc3C2)n1 (stereo not drawn)	0.25 % free
O=C(Nc1nccc(Oc2ccc3c(c2)CC(c2nc(-c4ccccc4)c[nH]2)CO3)n1)C1CC1 (stereo not drawn)	0.4 % free
O=C1CCc2c(Oc3ccc4c(c3)CC(c3nc(-c5cncc(C(F)F)c5)c[nH]3)CO4)ccnc2N1 (stereo not drawn)	0.86 % free
O=C1CCc2c(Oc3ccc4c(c3)CC(c3nc(-c5cccnc5C(F)(F)F)c[nH]3)CO4)ccnc2N1 (stereo not drawn)	1.2 % free
Cc1c[nH]c(-c2cc(Oc3ccc4c(c3)CC(c3nc(-c5ccccc5)c[nH]3)CO4)ccn2)n1 (stereo not drawn)	<0.1 % free

Below are 6 molecules. Give each one its mPPB (% free).
1. Cc1cc(-c2c[nH]c(C3COc4ccc(Oc5ccnc6c5CCC(=O)N6)cc4C3)n2)ccn1 (stereo not drawn)
2. COc1cc(-c2c[nH]c(C3COc4ccc(Oc5ccnc6c5CCC(=O)N6)cc4C3)n2)ccn1 (stereo not drawn)
3. c1ccc(-c2c[nH]c(C3COc4ccc(Oc5ccnc(Nc6ccccn6)c5)cc4C3)n2)cc1 (stereo not drawn)
4. O=C(Cn1cncn1)Nc1cc(Oc2ccc3c(c2)CC(c2nc(-c4ccccc4)c[nH]2)CO3)ccn1 (stereo not drawn)
5. CC(C)c1cc(-c2c[nH]c(C3COc4ccc(Oc5ccnc6c5CCC(=O)N6)cc4C3)n2)ccn1 (stereo not drawn)
6. COc1csc(-c2c[nH]c(C3COc4ccc(Oc5ccnc6c5CCC(=O)N6)cc4C3)n2)c1 (stereo not drawn)

[out]
2.3 % free
1.5 % free
0.2 % free
0.7 % free
0.6 % free
0.21 % free
